ASSAY_SYSTEM: Peroxisome proliferator-activated receptor alpha (Mus musculus) (UniProt P23204)
EXPERIMENT_SUMMARY: In vivo agonist activity at PPARalpha in high fat diet-induced nonalcoholic steatohepatitis C57BL/6J mouse model assessed as increase in ACOX1 mRNA expression in liver administered at 3 mg/kg, po and measured after 24 hrs by quantitative real time PCR analysis
Assay type: functional, organism-based
Active and inactive are the calls of the source. The rule behind the calls is not given here.
MEASUREMENT_KIND: Activity

A selection of reference data follows.
>>> result("COc1cc(Cn2c(CCCc3ccc(OC(C)(C)C(=O)O)cc3)nn(Cc3ccc(C)cc3)c2=O)cc(OC)c1OC")
"Active"
>>> result("C=Cc1ccc(Cn2nc(CCCc3ccc(OC(C)(C)C(=O)O)cc3)n(Cc3ccc(C)cc3)c2=O)cc1")
"Active"
>>> result("Cc1ccc(Cn2nc(CCCc3ccc(OC(C)(C)C(=O)O)cc3)n(Cc3ccc(Cl)cc3)c2=O)cc1")
"Active"
>>> result("COc1ccc(Cn2c(CCCc3ccc(OC(C)(C)C(=O)O)cc3)nn(Cc3ccc(C(C)(C)C)cc3)c2=O)cc1")
"Active"

// switching to the query compound
Asked: Would you mind telling me what Activity value was observed for "COc1cccc(Cn2c(CCCc3ccc(OC(C)(C)C(=O)O)cc3)nn(Cc3ccc(C)cc3)c2=O)c1" ?
Given back: Active

====

ASSAY_SYSTEM: Peroxisome proliferator-activated receptor alpha (Homo sapiens)
Sequence (Q07869 whole entry, the tested form may be a part): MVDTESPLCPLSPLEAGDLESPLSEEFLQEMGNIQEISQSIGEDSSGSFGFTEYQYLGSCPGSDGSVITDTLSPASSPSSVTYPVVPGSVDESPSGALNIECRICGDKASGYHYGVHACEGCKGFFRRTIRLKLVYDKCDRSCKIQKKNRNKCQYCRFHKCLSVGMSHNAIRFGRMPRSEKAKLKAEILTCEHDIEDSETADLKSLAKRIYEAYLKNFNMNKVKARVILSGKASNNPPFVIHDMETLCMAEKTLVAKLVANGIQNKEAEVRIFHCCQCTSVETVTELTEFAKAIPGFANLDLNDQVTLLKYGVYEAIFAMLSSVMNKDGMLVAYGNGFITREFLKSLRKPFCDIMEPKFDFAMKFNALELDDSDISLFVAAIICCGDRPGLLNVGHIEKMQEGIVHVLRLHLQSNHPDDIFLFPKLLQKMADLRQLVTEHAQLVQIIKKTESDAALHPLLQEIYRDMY
EXPERIMENT_SUMMARY: Agonist activity at Gal4-fused human PPARalpha co-expressed with RXRalpha in monkey CV1 cells assessed as PPRE transcriptional activation incubated for 45 hrs by luciferase reporter gene assay
MEASUREMENT_KIND: EC50
I'd appreciate it if you wrote the number followed by its unit.

>>> result("Cc1ccc(Cn2nc(CCCc3ccc(OC(C)(C)C(=O)O)cc3)n(Cc3ccc(Cl)cc3)c2=O)cc1")
"1 nM"
>>> result("COc1ccc(Cn2c(CCCc3ccc(OC(C)(C)C(=O)O)cc3)nn(Cc3ccc(C)cc3)c2=O)cc1")
"0.87 nM"
>>> result("COc1cccc(Cn2c(CCCc3ccc(OC(C)(C)C(=O)O)cc3)nn(Cc3ccc(C)cc3)c2=O)c1")
"1 nM"
>>> result("Cc1ccc(Cn2nc(CCCc3ccc(OC(C)(C)C(=O)O)cc3)n(Cc3ccc(F)cc3)c2=O)cc1")
"0.95 nM"
>>> result("C=Cc1ccc(Cn2nc(CCCc3ccc(OC(C)(C)C(=O)O)cc3)n(Cc3ccc(C)cc3)c2=O)cc1")
"12 nM"

Asked: If you can, please state the reported EC50 value of "Cc1ccc(Cn2nc(CCCc3ccc(OC(C)(C)C(=O)O)cc3)n(Cc3ccc(C)cc3)c2=O)cc1" .
Given back: 0.85 nM

====

ASSAY_SYSTEM: Peroxisome proliferator-activated receptor alpha (Mus musculus)
Sequence (whole entry): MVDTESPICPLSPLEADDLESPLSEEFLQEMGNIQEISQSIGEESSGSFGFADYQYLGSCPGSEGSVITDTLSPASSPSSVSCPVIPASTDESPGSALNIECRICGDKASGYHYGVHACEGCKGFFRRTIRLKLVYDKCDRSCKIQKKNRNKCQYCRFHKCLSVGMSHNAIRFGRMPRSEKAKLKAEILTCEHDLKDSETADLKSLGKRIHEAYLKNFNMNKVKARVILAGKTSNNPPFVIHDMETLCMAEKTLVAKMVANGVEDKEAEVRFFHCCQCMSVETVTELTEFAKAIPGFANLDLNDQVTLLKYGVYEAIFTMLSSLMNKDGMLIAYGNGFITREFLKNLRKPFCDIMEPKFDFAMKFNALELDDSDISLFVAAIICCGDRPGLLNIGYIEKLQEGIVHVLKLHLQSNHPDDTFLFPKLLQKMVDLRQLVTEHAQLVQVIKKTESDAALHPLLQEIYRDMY
EXPERIMENT_SUMMARY: In vivo agonist activity at PPARalpha in high fat diet-induced nonalcoholic steatohepatitis C57BL/6J mouse model assessed as increase in ACOX1 mRNA expression in liver administered at 3 mg/kg, po and measured after 24 hrs by quantitative real time PCR analysis
Type: functional, organism-based
Calls of active or inactive are those of the source. The calls are words filed in the database; no cut-off is given here.
// one of active, inactive, no free text

Asked: Entry "COc1ccc(Cn2c(CCCc3ccc(OC(C)(C)C(=O)O)cc3)nn(Cc3ccc(C)cc3)c2=O)cc1" : call = ?
Given back: active

Asked: Please indicate how the test categorized "Cc1ccc(Cn2nc(CCCc3ccc(OC(C)(C)C(=O)O)cc3)n(Cc3ccc(C)cc3)c2=O)cc1" .
Given back: inactive

Asked: Please state the recorded outcome for this compound: "Cc1ccc(Cn2nc(CCCc3ccc(OC(C)(C)C(=O)O)cc3)n(Cc3ccc(F)cc3)c2=O)cc1"
Given back: active

Asked: Recorded test outcome, item "Cc1ccc(Cn2nc(CCCc3ccc(OC(C)(C)C(=O)O)cc3)n(Cc3ccccc3)c2=O)cc1"
Given back: active

Asked: Short answer needed: outcome of this test for "CC(C)(Sc1ccc(CCN(CCCCC2CCCCC2)C(=O)NC2CCCCC2)cc1)C(=O)O" ?
Given back: inactive
